Property: normalized RNA/DNA level without ligand (log10); scope: individual variants
B1: library; a variant is named by its letters at N, in order (parent)
chain: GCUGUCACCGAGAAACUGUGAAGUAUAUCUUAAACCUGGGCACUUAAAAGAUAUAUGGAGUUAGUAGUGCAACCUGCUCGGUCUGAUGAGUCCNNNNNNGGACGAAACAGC

- Variants of: B1
- procedure.details: normalized RNA/DNA level without ligand (relative to sTRSVctl = 100) (log10 (% of sTRSVctl)); HEK293T; ligand: cyclic di-GMP (c-di-GMP-II aptamer); higher = less ribozyme self-cleavage, higher mRNA level
- measurement.parameters: reporter: mCherry (pCS4076), ligand present: no
Note: the reply should be a number with no unit written.

Field: example entries. Status: answers known.
[
  {
    "mutation.spec": "AUGAAG",
    "numeric.readout": 1.52
  },
  {
    "mutation.spec": "UUGUCA",
    "numeric.readout": 1.77
  },
  {
    "mutation.spec": "GAAAAC",
    "numeric.readout": 1.59
  },
  {
    "mutation.spec": "CCGGAU",
    "numeric.readout": 1.55
  },
  {
    "mutation.spec": "CUUGAA",
    "numeric.readout": 1.35
  }
]

The measured normalized RNA/DNA level without ligand (log10) associated with GUUGAU reads 1.61

The measured normalized RNA/DNA level without ligand (log10) associated with UUGUCU reads 1.8

The measured normalized RNA/DNA level without ligand (log10) associated with GAGGUG reads 1.74

The measured normalized RNA/DNA level without ligand (log10) associated with UCCCCU reads 1.78

The measured normalized RNA/DNA level without ligand (log10) associated with UACCGA reads 1.56

The measured normalized RNA/DNA level without ligand (log10) associated with AUCUGC reads 1.73

Provenance of the data: the supplement of paper PMC6757056
